System: Escherichia coli
Settings: Concentration 32 ug.mL-1; ASSAY_TEST Inhibition of Bacterial Growth; detection method Absorption (OD600); MEDIA CAMHB; plate type 384well; NBS; CORNING #3640; time 18 hr
Description: Antibacterial activity against Escherichia coli ATCC 25922 (CO-ADD:GN_001); MIC in CAMBH media using NBS plates, by OD(600)
Potency and affinity values are given separately.
Measured Inhibition, listed per entry for reference.
Numbers only here, please. The scale is %.

{"columns": ["Compound", "Quantitative readout"],
 "data": [
  ["Cc1ncc(Cn2cc(CCCN)nn2)c(N)n1.Cl", -28.01]
]}

Data request: // Inhibition lookup, key: COc1cccc(C(=N)Nc2cc(C(=O)Nc3cc(C(=O)Nc4cc(C(=O)NCCCN5CCOCC5)n(C)c4)n(C)c3)n(C)c2)c1.O=C(O)C(F)(F)F.O=C(O)C(F)(F)F
Data returned: -6.36

Data request: // Inhibition lookup, key: Cc1ncc(Cn2cc(CCCCO)nn2)c(N)n1
Data returned: -20.02

The measurements presented in this section are drawn from ChEMBL document CHEMBL4513139.
